- TARGET OR TEST SYSTEM: T1, human PD-L1 (human, UniProt Q9NZQ7 19-290)
- T1 construct: whole, on cells; CHO cells stably expressing huPD-L1; also called huPD-L1
- T1 sequence (Q9NZQ7 19-290): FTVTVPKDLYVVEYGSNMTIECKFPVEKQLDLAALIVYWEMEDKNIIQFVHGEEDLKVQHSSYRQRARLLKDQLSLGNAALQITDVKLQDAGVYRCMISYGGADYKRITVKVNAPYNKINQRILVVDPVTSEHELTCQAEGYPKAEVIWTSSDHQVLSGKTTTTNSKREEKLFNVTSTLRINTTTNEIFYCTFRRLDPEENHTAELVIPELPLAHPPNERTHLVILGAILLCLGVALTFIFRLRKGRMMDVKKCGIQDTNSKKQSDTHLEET
- PROTOCOL TEXT: flow cytometry, CHO cells stably expressing huPD-L1, 33.3 nM Fc fusion, PE anti-human Fc
PROPERTY LABEL: MFI at 33.3 nM
Give the figure together with its unit, number first.

[
  {
    "BINDER": "variant CD80 IgV-Fc (inert) H18I/A26P/E35D/M47V/V68M/A71G (Fc fusion, not shown: inert human IgG1 Fc) VIHVTKEVKEVATLSCGINVSVEELPQTRIYWQKDKKMVLTMMSGDVNIWPEYKNRTIFDITNNLSIMILGLRPSDEGTYECVVLKYEKDAFKREHLAEVTLSVKAD",
    "MFI at 33.3 nM": "64900 MFI"
  },
  {
    "BINDER": "variant CD80 IgV-Fc (inert) H18L/A26N/D46E/V68M/A71G/D90G (Fc fusion, not shown: inert human IgG1 Fc) VIHVTKEVKEVATLSCGLNVSVEELNQTRIYWQKEKKMVLTMMSGEMNIWPEYKNRTIFDITNNLSIMILGLRPSDEGTYECVVLKYEKGAFKREHLAEVTLSVKAD",
    "MFI at 33.3 nM": "68000 MFI"
  },
  {
    "BINDER": "variant CD80 IgV-Fc (inert) H18C/A26P/E35D/M47L/V68M/A71G (Fc fusion, not shown: inert human IgG1 Fc) VIHVTKEVKEVATLSCGCNVSVEELPQTRIYWQKDKKMVLTMMSGDLNIWPEYKNRTIFDITNNLSIMILGLRPSDEGTYECVVLKYEKDAFKREHLAEVTLSVKAD",
    "MFI at 33.3 nM": "67000 MFI"
  },
  {
    "BINDER": "variant CD80 IgV-Fc (inert) H18T/A26N/E35D/M47L/V68M/A71G (Fc fusion, not shown: inert human IgG1 Fc) VIHVTKEVKEVATLSCGTNVSVEELNQTRIYWQKDKKMVLTMMSGDLNIWPEYKNRTIFDITNNLSIMILGLRPSDEGTYECVVLKYEKDAFKREHLAEVTLSVKAD",
    "MFI at 33.3 nM": "68500 MFI"
  },
  {
    "BINDER": "variant CD80 IgV-Fc (inert) H18V/A26G/E35D/M47V/V68M/A71G/D90G (Fc fusion, not shown: inert human IgG1 Fc) VIHVTKEVKEVATLSCGVNVSVEELGQTRIYWQKDKKMVLTMMSGDVNIWPEYKNRTIFDITNNLSIMILGLRPSDEGTYECVVLKYEKGAFKREHLAEVTLSVKAD",
    "MFI at 33.3 nM": "66200 MFI"
  }
]

Let's switch to this binder now.
stdin: Please look up its MFI at 33.3 nM: variant CD80 IgV-Fc (inert) H18V/A26N/E35D/M47V/V68M/A71G (Fc fusion, not shown: inert human IgG1 Fc) VIHVTKEVKEVATLSCGVNVSVEELNQTRIYWQKDKKMVLTMMSGDVNIWPEYKNRTIFDITNNLSIMILGLRPSDEGTYECVVLKYEKDAFKREHLAEVTLSVKAD
stdout: 68200 MFI
